testedOn: MAGE-A11:PCF11 interaction (GST-MAGE-A11 and FAM-PCF11_4) (Homo sapiens, UniProt P43364)
Construct: GST-MAGE-A11 MHD (human MAGE-A11 MHD amino acid 218-429); made in house; host or cells: E. coli BL21(DE3)
Sequence (P43364 218-429): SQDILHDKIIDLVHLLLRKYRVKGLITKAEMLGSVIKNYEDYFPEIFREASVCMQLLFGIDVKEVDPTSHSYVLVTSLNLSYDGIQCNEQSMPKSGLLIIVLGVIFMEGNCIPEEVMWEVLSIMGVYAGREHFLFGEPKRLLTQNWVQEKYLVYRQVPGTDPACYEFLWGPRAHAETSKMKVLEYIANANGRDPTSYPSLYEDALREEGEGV
measurementProtocol: TR-FRET primary / single point screen at 15 µM
Format: binding
settings: single point TR-FRET screening of quinoline compounds against MAGE-A11:PCF11; 15 µM
Output condition met for percent inhibition (TR-FRET) not less than 10; output condition not met otherwise.

compound | labelValue
CCCN(CCCNc1ccnc2cc(Cl)ccc12)Cc1ccccc1C(F)(F)F [SJ000522745] | condition not met

Query string: Given Clc1ccc2c(NCCCN(Cc3ccccc3)Cc3ccc4[nH]ccc4c3)ccnc2c1 [SJ000520430] , state whether its percent inhibition (TR-FRET) is at least 10.
Result string: condition met

Query string: Check the entry CCCN(CCCNc1ccnc2cc(C(F)(F)F)ccc12)Cc1ccncc1 [SJ000361251] : does percent inhibition (TR-FRET) equal or exceed 10?
Result string: condition met

Query string: Could you please find out whether CCOC(=O)c1cnc2c(C)c(Cl)ccc2c1NCCCN1CCOCC1 [SJ000129912] has percent inhibition (TR-FRET) that meets 10 or exceeds it?
Result string: condition not met
